The reported measurements were obtained from PubChem BioAssay AID2060604.

# System: 379773-124-R-J2-PDC complex spheroids, viability % test/control;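 also: compound exposure lasted seven days before the viability readout; 100% = DMSO vehicle control wells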
# measurement.protocol: Anticancer human tumor 379773-124-R-J2-PDC patient-derived endometrial carcinoma cell line growth inhibition [CLK]
# settings: second compound 0.1 µM; first compound 10 µM; active compounds read low
Checkbox rule: viability, T/C lower than 20% = 1; viability, T/C not lower than 20% = 0.

Known results for molecules:
molecule: COC1C=CCC(C)C(C)S(=O)(=O)NC(=O)c2ccc3c(c2)N(CC2CCC21)CC1(CCCc2cc(Cl)ccc21)CO3 (configuration not stated) + CN1CCN(c2cc(C(=O)Nc3cc4cc(-c5cnn(C)c5)ccc4cn3)ccn2)CC1
discrete.label: 1
//
molecule: O=c1[nH]cc(F)c(=O)[nH]1 + CNC(=O)c1ccc(Nc2nc(OC3CCCC3)c3c(-c4ccc5nc(C)oc5c4)c[nH]c3n2)c(OC)c1
discrete.label: 0
//
molecule: O=C(c1cc(Cc2n[nH]c(=O)c3ccccc23)ccc1F)N1CCN(C(=O)C2CC2)CC1 + CNC(=O)c1ccc(Nc2nc(OC3CCCC3)c3c(-c4ccc5nc(C)oc5c4)c[nH]c3n2)c(OC)c1
discrete.label: 1

Hi there! Is viability, T/C for COc1ccc([C@@H](O)c2cc(-c3ncnc4cc(N5CCOCC5)ccc34)c(F)cc2Cl)nn1 + CNC(=O)c1ccc(Nc2nc(OC3CCCC3)c3c(-c4ccc5nc(C)oc5c4)c[nH]c3n2)c(OC)c1 below 20%, do you know?
1
